Target: Histone deacetylase 8 (Homo sapiens)
Sequence (Q9BY41 whole entry): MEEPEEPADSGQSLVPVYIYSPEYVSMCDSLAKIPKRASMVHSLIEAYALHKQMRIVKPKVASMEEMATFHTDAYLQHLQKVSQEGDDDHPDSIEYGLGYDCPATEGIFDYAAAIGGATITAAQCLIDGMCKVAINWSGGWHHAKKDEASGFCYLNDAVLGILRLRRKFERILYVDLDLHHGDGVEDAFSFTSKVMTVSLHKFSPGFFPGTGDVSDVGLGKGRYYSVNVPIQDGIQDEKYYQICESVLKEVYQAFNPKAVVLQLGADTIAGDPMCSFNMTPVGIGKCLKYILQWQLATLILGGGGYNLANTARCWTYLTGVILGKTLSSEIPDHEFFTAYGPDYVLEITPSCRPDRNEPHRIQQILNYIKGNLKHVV
Assay: Inhibition of human recombinant HDAC8 using [RHKK(Ac)] fluorogenic substrate
The following compounds are shown together with reported IC50 values.
// note: answer is a bare numeric in nM

Just so you know, measured IC50 for CC12CC3CC(C)(C1)CC(NCc1cccc(NC(=O)CCCCCCC(=O)NO)c1)(C3)C2 came out at 703

Just so you know, measured IC50 for CC12CC3CC(C)(C1)CC(NS(=O)(=O)c1ccc(/C=C/C(=O)NO)cc1)(C3)C2 came out at 7380

Just so you know, measured IC50 for CC12CC3CC(C)(C1)CC(NS(=O)(=O)c1cccc(/C=C/C(=O)NO)c1)(C3)C2 came out at 562

Just so you know, measured IC50 for CC12CC3CC(C)(C1)CC(NC(=O)CCCCCC(=O)NO)(C3)C2 came out at 4140

Just so you know, measured IC50 for CC12CC3CC(C)(C1)CC(NC(=O)CCCCCCCC(=O)NO)(C3)C2 came out at 1070

Just so you know, measured IC50 for CC12CC3CC(C)(C1)CC(NC(=O)CCCCCCCCC(=O)NO)(C3)C2 came out at 707

Just so you know, measured IC50 for CC12CC3CC(C)(C1)CC(NCc1ccc(NC(=O)CCCCCCC(=O)NO)cc1)(C3)C2 came out at 638
